TESTED TARGET: Delta-type opioid receptor (Homo sapiens, UniProt P41143)
Sequence (P41143 whole entry): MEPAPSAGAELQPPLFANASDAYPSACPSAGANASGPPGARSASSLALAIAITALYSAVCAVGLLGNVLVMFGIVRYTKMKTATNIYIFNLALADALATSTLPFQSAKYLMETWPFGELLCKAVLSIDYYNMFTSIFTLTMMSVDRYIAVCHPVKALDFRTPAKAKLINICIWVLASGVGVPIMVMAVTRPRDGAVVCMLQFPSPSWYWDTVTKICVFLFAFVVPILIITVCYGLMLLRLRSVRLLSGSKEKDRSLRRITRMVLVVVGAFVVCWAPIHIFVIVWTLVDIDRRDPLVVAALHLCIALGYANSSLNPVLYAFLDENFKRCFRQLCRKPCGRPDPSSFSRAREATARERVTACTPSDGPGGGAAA
ASSAY EXPLANATION: Agonist activity at DOR (unknown origin) transfected in CHO cells co-expressing Galphaq15 assessed as increase in calcium mobilization by Fluo-4AM dye based assay
ENDPOINT: pEC50
// field semantics: pEC50 = negative decimal log of concentration (mol/L)

*Q* Fill blank: measured pEC50 of the molecule `CN1C(=O)CNC(=O)[C@H](N[C@@H](Cc2ccc(O)cc2)C(=O)O)CCC/C=C/CC[C@@H](C(=O)N2CCC[C@H]2C(=O)N[C@@H](CCC(N)=O)C(=O)N[C@@H](CCCNC(=N)N)C(=O)N[C@@H](Cc2ccccc2)C(N)=O)NC(=O)[C@@H]1Cc1ccccc1` is ____.
*A* 7.62

*Q* Fill blank: measured pEC50 of the molecule `CN1C(=O)CNC(=O)[C@H](N[C@@H](Cc2ccc(O)cc2)C(=O)O)CCCC/C=C\C[C@@H](C(=O)N2CCC[C@H]2C(=O)N[C@@H](CCC(N)=O)C(=O)N[C@@H](CCCNC(=N)N)C(=O)N[C@@H](Cc2ccccc2)C(N)=O)NC(=O)[C@@H]1Cc1ccccc1` is ____.
*A* 7.25

*Q* Fill blank: measured pEC50 of the molecule `CN1C(=O)CNC(=O)[C@H](N[C@@H](Cc2ccc(O)cc2)C(=O)O)CCCC/C=C/CC[C@@H](C(=O)N2CCC[C@H]2C(=O)N[C@@H](CCC(N)=O)C(=O)N[C@@H](CCCNC(=N)N)C(=O)N[C@@H](Cc2ccccc2)C(N)=O)NC(=O)[C@@H]1Cc1ccccc1` is ____.
*A* 7.87

* * *

TESTED TARGET: UniProtKB P35372
ASSAY EXPLANATION: Agonist activity at MOR (unknown origin) transfected in CHO cells co-expressing Galphaq15 assessed as increase in calcium mobilization by Fluo-4AM dye based assay
For each entry below, report its EC50 value.

*Q* Fill blank: measured EC50 of the molecule `CN1C(=O)CNC(=O)[C@H](N[C@@H](Cc2ccc(O)cc2)C(=O)O)CCCC/C=C\C[C@@H](C(=O)N2CCC[C@H]2C(=O)N[C@@H](CCC(N)=O)C(=O)N[C@@H](CCCNC(=N)N)C(=O)N[C@@H](Cc2ccccc2)C(N)=O)NC(=O)[C@@H]1Cc1ccccc1` is ____.
*A* 2.8 nM

*Q* Fill blank: measured EC50 of the molecule `CN1C(=O)CNC(=O)[C@@H](N[C@@H](Cc2ccc(O)cc2)C(=O)O)C/C=C/CCCC[C@H](C(=O)N2CCC[C@H]2C(=O)N[C@@H](CCC(N)=O)C(=O)N[C@@H](CCCNC(=N)N)C(=O)N[C@@H](Cc2ccccc2)C(N)=O)NC(=O)[C@@H]1Cc1ccccc1` is ____.
*A* 2900 nM

*Q* Fill blank: measured EC50 of the molecule `CN1C(=O)CNC(=O)[C@H](N[C@@H](Cc2ccc(O)cc2)C(=O)O)CCC/C=C/CC[C@@H](C(=O)N2CCC[C@H]2C(=O)N[C@@H](CCC(N)=O)C(=O)N[C@@H](CCCNC(=N)N)C(=O)N[C@@H](Cc2ccccc2)C(N)=O)NC(=O)[C@@H]1Cc1ccccc1` is ____.
*A* 7.6 nM

* * *

For each entry below, report its half-life at 10000 µM value.
ASSAY EXPLANATION: Metabolic stability in mouse plasma assessed as degradation half life at 10 mM measured upto 480 mins by RP-HPLC analysis
Format: ADME, cell-free
Field format: number, assumed min, no unit text.

*Q* Fill blank: measured half-life at 10000 µM of the molecule `CN1C(=O)CNC(=O)[C@H](N[C@@H](Cc2ccc(O)cc2)C(=O)O)CCC/C=C/CC[C@@H](C(=O)N2CCC[C@H]2C(=O)N[C@@H](CCC(N)=O)C(=O)N[C@@H](CCCNC(=N)N)C(=O)N[C@@H](Cc2ccccc2)C(N)=O)NC(=O)[C@@H]1Cc1ccccc1` is ____.
*A* 32.2

*Q* Fill blank: measured half-life at 10000 µM of the molecule `CN1C(=O)CNC(=O)[C@H](N[C@@H](Cc2ccc(O)cc2)C(=O)O)CCCC/C=C/C[C@@H](C(=O)N2CCC[C@H]2C(=O)N[C@@H](CCC(N)=O)C(=O)N[C@@H](CCCNC(=N)N)C(=O)N[C@@H](Cc2ccccc2)C(N)=O)NC(=O)[C@@H]1Cc1ccccc1` is ____.
*A* 37.8

*Q* Fill blank: measured half-life at 10000 µM of the molecule `CN1C(=O)CNC(=O)[C@H](N[C@@H](Cc2ccc(O)cc2)C(=O)O)CCCC/C=C\C[C@@H](C(=O)N2CCC[C@H]2C(=O)N[C@@H](CCC(N)=O)C(=O)N[C@@H](CCCNC(=N)N)C(=O)N[C@@H](Cc2ccccc2)C(N)=O)NC(=O)[C@@H]1Cc1ccccc1` is ____.
*A* 26.8

* * *

For each entry below, report its Emax value.
ASSAY EXPLANATION: Agonist activity at NPFF1R (unknown origin) transfected in CHO cells co-expressing Galphaq15 assessed as increase in calcium mobilization by measuring maximal efficacy by Fluo-4AM dye based assay relative to control
Assay type: functional, cell-based
RECORDED CONDITIONS: Homo sapiens, filed as agonist

*Q* Fill blank: measured Emax of the compound `CN1C(=O)CNC(=O)[C@H](N[C@@H](Cc2ccc(O)cc2)C(=O)O)CCCC/C=C/C[C@@H](C(=O)N2CCC[C@H]2C(=O)N[C@@H](CCC(N)=O)C(=O)N[C@@H](CCCNC(=N)N)C(=O)N[C@@H](Cc2ccccc2)C(N)=O)NC(=O)[C@@H]1Cc1ccccc1` is ____.
*A* 88.1%

*Q* Fill blank: measured Emax of the compound `CN1C(=O)CNC(=O)[C@H](N[C@@H](Cc2ccc(O)cc2)C(=O)O)CCCC/C=C/CC[C@@H](C(=O)N2CCC[C@H]2C(=O)N[C@@H](CCC(N)=O)C(=O)N[C@@H](CCCNC(=N)N)C(=O)N[C@@H](Cc2ccccc2)C(N)=O)NC(=O)[C@@H]1Cc1ccccc1` is ____.
*A* 91.9%

*Q* Fill blank: measured Emax of the compound `CN1C(=O)CNC(=O)[C@H](N[C@@H](Cc2ccc(O)cc2)C(=O)O)CCCC/C=C\CC[C@@H](C(=O)N2CCC[C@H]2C(=O)N[C@@H](CCC(N)=O)C(=O)N[C@@H](CCCNC(=N)N)C(=O)N[C@@H](Cc2ccccc2)C(N)=O)NC(=O)[C@@H]1Cc1ccccc1` is ____.
*A* 105%

*Q* Fill blank: measured Emax of the compound `CN1C(=O)CNC(=O)[C@@H](N[C@@H](Cc2ccc(O)cc2)C(=O)O)C/C=C/CCCC[C@H](C(=O)N2CCC[C@H]2C(=O)N[C@@H](CCC(N)=O)C(=O)N[C@@H](CCCNC(=N)N)C(=O)N[C@@H](Cc2ccccc2)C(N)=O)NC(=O)[C@@H]1Cc1ccccc1` is ____.
*A* 124%

* * *

TESTED TARGET: Mu-type opioid receptor (Homo sapiens, UniProt P35372)
Sequence (P35372 whole entry): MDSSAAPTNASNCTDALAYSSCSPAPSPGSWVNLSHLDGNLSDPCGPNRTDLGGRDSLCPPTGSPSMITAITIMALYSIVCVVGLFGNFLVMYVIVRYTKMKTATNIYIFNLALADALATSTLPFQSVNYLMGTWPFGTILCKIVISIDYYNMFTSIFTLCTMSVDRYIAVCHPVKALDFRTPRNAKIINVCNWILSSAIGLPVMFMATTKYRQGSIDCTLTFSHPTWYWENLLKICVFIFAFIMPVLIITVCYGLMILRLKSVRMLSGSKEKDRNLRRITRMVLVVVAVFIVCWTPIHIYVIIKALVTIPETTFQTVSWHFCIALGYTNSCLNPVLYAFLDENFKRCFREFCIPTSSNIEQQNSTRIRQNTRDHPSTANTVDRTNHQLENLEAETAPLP
ASSAY EXPLANATION: Agonist activity at MOR (unknown origin) transfected in CHO cells co-expressing Galphaq15 assessed as increase in calcium mobilization by Fluo-4AM dye based assay
For each entry below, report its pEC50 value.
// field semantics: pEC50 = negative decimal log of concentration (mol/L)

*Q* Fill blank: measured pEC50 of the compound `CN1C(=O)CNC(=O)[C@H](N[C@@H](Cc2ccc(O)cc2)C(=O)O)CCCC/C=C/CC[C@@H](C(=O)N2CCC[C@H]2C(=O)N[C@@H](CCC(N)=O)C(=O)N[C@@H](CCCNC(=N)N)C(=O)N[C@@H](Cc2ccccc2)C(N)=O)NC(=O)[C@@H]1Cc1ccccc1` is ____.
*A* 8.92

*Q* Fill blank: measured pEC50 of the compound `CN1C(=O)CNC(=O)[C@H](N[C@@H](Cc2ccc(O)cc2)C(=O)O)CCCC/C=C/C[C@@H](C(=O)N2CCC[C@H]2C(=O)N[C@@H](CCC(N)=O)C(=O)N[C@@H](CCCNC(=N)N)C(=O)N[C@@H](Cc2ccccc2)C(N)=O)NC(=O)[C@@H]1Cc1ccccc1` is ____.
*A* 7.80

*Q* Fill blank: measured pEC50 of the compound `CN1C(=O)CNC(=O)[C@H](N[C@@H](Cc2ccc(O)cc2)C(=O)O)CCCC/C=C\CC[C@@H](C(=O)N2CCC[C@H]2C(=O)N[C@@H](CCC(N)=O)C(=O)N[C@@H](CCCNC(=N)N)C(=O)N[C@@H](Cc2ccccc2)C(N)=O)NC(=O)[C@@H]1Cc1ccccc1` is ____.
*A* 7.03

*Q* Fill blank: measured pEC50 of the compound `CN1C(=O)CNC(=O)[C@H](N[C@@H](Cc2ccc(O)cc2)C(=O)O)CCC/C=C/C[C@@H](C(=O)N2CCC[C@H]2C(=O)N[C@@H](CCC(N)=O)C(=O)N[C@@H](CCCNC(=N)N)C(=O)N[C@@H](Cc2ccccc2)C(N)=O)NC(=O)[C@@H]1Cc1ccccc1` is ____.
*A* 7.41
